# cell viability z-score within plate values compiled below
# Tested on: FLX1
# test name: cell viability z-score within plate (CellTiter-Glo), mean of 3 biological replicates; higher = higher viability relative to plate (less growth inhibition)
# condition notes: 2 µM; time (hr): 120
property measured: cell viability z-score within plate

structure string | test target | value observed
CCN1CCN(C(=O)Cc2ccc(Nc3ncc(F)c(Nc4ccc(C(=O)Nc5ccccc5Cl)cc4)n3)cc2)CC1 | FLX1 | -0.367
Cn1cc(C2=C(c3cn(C4CCN(Cc5ccccn5)CC4)c4ccccc34)C(=O)NC2=O)c2ccccc21 | FLX1 | -2.47
CC(C)(C)c1cc(C=C(C#N)C#N)cc(Br)c1O | FLX1 | -0.784
O=c1[nH]c2ccc(Cl)cc2c(N[C@@H]2CN3CCC2CC3)c1-c1nc2ccccc2[nH]1 | FLX1 | 0.562

====

# System: FLX1 + dox-induced PRKAR1A G325D
# test name: difference in log2 fold change of viability vs plate median (dox-induced PRKAR1A G325D minus uninduced); higher = compound less effective when PKA is inhibited
# condition notes: concentration: not stated (2 or 5 uM); 5 days
Field: label. Allowed values: fulfilled (difference in log2 fold change of viability < -0.06) or not fulfilled (difference in log2 fold change of viability >= -0.06).

structure string | assigned category
CCN1CCN(C(=O)Cc2ccc(Nc3ncc(F)c(Nc4ccc(C(=O)Nc5ccccc5Cl)cc4)n3)cc2)CC1 | fulfilled
Cn1cc(C2=C(c3cn(C4CCN(Cc5ccccn5)CC4)c4ccccc34)C(=O)NC2=O)c2ccccc21 | fulfilled
O=c1[nH]c2ccc(Cl)cc2c(N[C@@H]2CN3CCC2CC3)c1-c1nc2ccccc2[nH]1 | fulfilled
CC(C)(C)c1cc(C=C(C#N)C#N)cc(C(C)(C)C)c1O | not fulfilled
Cc1ccccc1-n1c(Cn2ncc3c(N)ncnc32)nc2cccc(C)c2c1=O | not fulfilled
